experiment: chemical genetic growth profiling, strain panel (AID 1159580);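 note: tested at 20 µM; growth read once vehicle control cultures reached saturation at 30 °C; lower values mean less growth of the strain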; conditions: S. cerevisiae deletion strains, growth OD, locus YGL253W, strain hxk2
The campaign covered roughly 5,500 compounds. About 2,000 (36%) were called active. Roughly 18% stayed inconclusive and do not appear here. Cut-off read from the data, not from the text of the source: active = normalized growth mostly below about 0.91 (no sharp cut-off); inconclusive = no clear call, values can overlap the other calls; inactive = mostly above about 0.92. The list shows a part of the results.
Please answer using one outcome listed in active, inactive

How did this test come out for CCN(CC)CCOCCOC(=O)C1(c2ccccc2)CCCC1 ?
inactive

How did this test come out for CC(C)=CCc1c2c(c3occ(-c4ccc(O)c(O)c4)c(=O)c3c1O)C=CC(C)(C)O2 ?
inactive

How did this test come out for CCN(CC)CCOC(=O)C1(C2CCCCC2)CCCCC1 ?
inactive

How did this test come out for NCC(N)C(=O)c1ccccc1 (stereo unspecified) ?
inactive

How did this test come out for Oc1c(Cl)cc(Cl)cc1Sc1cc(Cl)cc(Cl)c1O ?
active

How did this test come out for COc1ccc([C@@H]2CC(=O)c3c(O)cc(O[C@@H]4O[C@H](CO[C@H]5O[C@@H](C)[C@H](O)[C@@H](O)[C@H]5O)[C@@H](O)[C@H](O)[C@H]4O)cc3O2)cc1O ?
inactive

How did this test come out for CC1=CC(=O)c2c(O)cccc2C1=O ?
active

How did this test come out for CC(C)CCCC(C)C1CCC2C3C[C@@H](O)[C@@]4(O)C[C@@H](O)CC[C@]4(C)C3CC[C@]12C (stereo partly specified) ?
inactive

How did this test come out for CC(C)CCCC(C)[C@H]1CCC2C3CC=C4C[C@@H](O)CC[C@]4(C)C3CC[C@@]21C (stereo partly specified) ?
inactive

How did this test come out for CC(C)NCC(O)COc1ccc(COCCOC(C)C)cc1 (stereo unspecified) ?
inactive

How did this test come out for CN(C)[C@@H]1C(=O)C(C(N)=O)=C(O)[C@@]2(O)C(=O)C3=C(O)c4c(O)ccc(Cl)c4[C@@H](O)[C@H]3C[C@@H]12 ?
inactive

How did this test come out for CC(=O)O[C@H]1CC[C@@]2(C)C(C[C@@H](OC(C)=O)[C@@]3(C)C4=CC(=O)O[C@@H](c5ccoc5)[C@]4(C)CCC23)C1(C)C (stereo partly specified) ?
inactive

How did this test come out for O=P1(NCCCl)OCCCN1CCCl (stereo unspecified) ?
inactive

How did this test come out for CC1=CC(=O)c2ccccc2C1=O ?
active

How did this test come out for CS(=O)(=O)Nc1ccc([N+](=O)[O-])cc1Oc1ccccc1 ?
inactive

How did this test come out for O=P1(N(CCCl)CCCl)NCCCO1 (stereo unspecified) ?
inactive

How did this test come out for Cc1scc2c1N(C(=O)CN1CCN(C)CC1)c1ccccc1NC2=O ?
inactive

How did this test come out for CC(C)CCCC(C)[C@H]1CCC2C3C(=O)C=C4C[C@@H](O)CC[C@]4(C)C3CC[C@@]21C (stereo partly specified) ?
inactive

How did this test come out for CC(CCC(=O)O)[C@H]1CCC2C3CC[C@@H]4C[C@H](O)CC[C@]4(C)C3C=C[C@@]21C (stereo partly specified) ?
inactive

How did this test come out for O=C(OOC(=O)c1ccccc1)c1ccccc1 ?
inactive

How did this test come out for CC(C)(C)NC[C@H](O)c1ccc(O)c(CO)c1 ?
inactive

How did this test come out for CCOC(=O)NNc1nncc2ccccc12 ?
inactive

How did this test come out for CC(CCC(=O)O)[C@H]1CCC2C3C(=O)C[C@@H]4CC(=O)CC[C@]4(C)C3CC(=O)[C@@]21C (stereo partly specified) ?
inactive

How did this test come out for C=C1c2c(Cl)ccc(O)c2C(O)=C2C(=O)[C@]3(O)C(O)=C(C(N)=O)C(=O)[C@@H](N(C)C)[C@@H]3[C@@H](O)[C@H]12 ?
inactive

How did this test come out for Cc1cn[nH]c1 ?
inactive

How did this test come out for CC(=O)Nc1ccc(S(=O)(=O)Nc2onc(C)c2C)cc1 ?
inactive

How did this test come out for COc1cc(C/C=C/c2ccccc2)c(OC)cc1O ?
inactive

How did this test come out for CC(C)C[C@@H](CN)CC(=O)O ?
inactive

How did this test come out for CNCCCC12CCC(c3ccccc31)c1ccccc12 ?
inactive

How did this test come out for CC(C)CCCC(C)[C@H]1CCC2C3CC=C4CC(=O)CC[C@]4(C)C3CC[C@@]21C (stereo partly specified) ?
inactive

How did this test come out for CC(=O)O[C@@H]1C=C[C@@]2(C)C(C[C@@H](OC(C)=O)[C@@]3(C)C4=CC(=O)O[C@@H](c5ccoc5)[C@]4(C)CCC23)C1(C)C (stereo partly specified) ?
inactive
